System: 786-0 complex spheroids with HUVEC/MSC, growth % test/control
Assay: Anticancer human tumor 786-0 cell line growth inhibition [AhR];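 note: compound exposure lasted seven days before the read-out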
Settings: second compound 10 µM; first compound 0.000316 µM; active compounds read low
quantityName: viability, T/C

INSERT INTO results (molecule, obsvalue) VALUES
  ('CC[C@@]1(O)C(=O)OCc2c1cc1n(c2=O)Cc2cc3c(CN(C)C)c(O)ccc3nc2-1 + Cc1cncc(-c2nc(NCCc3c[nH]c4ccccc34)c3ncn(C(C)C)c3n2)c1', '15.5%'),
  ('CC[C@@]1(O)C(=O)OCc2c1cc1n(c2=O)Cc2cc3c(CN(C)C)c(O)ccc3nc2-1 + Cc1ccccc1N=Nc1ccc(NC(=O)c2ccnn2C)c(C)c1', '90.7%'),
  ('CC[C@@]1(O)C(=O)OCc2c1cc1n(c2=O)Cc2cc3c(CN(C)C)c(O)ccc3nc2-1 + CC(CO)NC(=O)c1cc(-c2ccc(Cl)cc2)nn(-c2cnn(C)c2)c1=O', '118%');
